FYI, the data here is from paper PMC7826789.

tested on: ABL2; conditions: Compound Concentration (nM):1000;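 further: KINOMEscan scanMAX binding as percent activity remaining versus control; lower means stronger binding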
// reported Percent Control per item
Provide the reading as a plain figure in %.

Q: Reported Percent Control, compound CCn1c(-c2nonc2N)nc2c(C#CC(C)(C)O)nc(OCCNC)cc21.Cl [GSK949675] : ____
A: 100

Q: Now try CN(C)c1cc2c(Nc3ccc4c(cnn4Cc4ccccc4)c3)ncnc2cn1 [GW282974X] .
A: 95

Q: Repeat with COc1cc(C=NNc2ncnc3c2cnn3-c2ccccc2)ccc1O [GW513184X]
A: 55

Q: Lookup NS(=O)(=O)c1ccc(N/N=C2\C(=O)Nc3ccc(Cl)cc32)cc1 [GW280670X]
A: 100

---
Q: I would be grateful if you could share the reported Percent Control for Nc1ncnc2occ(-c3ccc(NC(=O)Nc4cc(C(F)(F)F)ccc4F)cc3)c12 [GW770249X] .
A: 41

Q: Next up: NS(=O)(=O)c1ccc(N/N=C2\C(=O)Nc3ccc(C(=O)NCCc4c[nH]cn4)cc32)cc1 [GW300660X]
A: 100

Q: Cool, now Cl.O=S1CCN(Cc2ccc(-c3ccc4ncnc(Nc5ccc(OCc6ccccc6)c(F)c5)c4c3)o2)CC1 [GW576924A]
A: 100

Q: Another compound to check: CC(C)COC(=O)c1ccc2c(c1)/C(=C/Nc1ccc(S(N)(=O)=O)cc1)C(=O)N2 [GW416981X]
A: 100

Q: Again, but for COc1ccccc1-c1cc(/C=C2\C(=O)Nc3ncc(Br)cc32)cc(Br)c1O [GW442130X]
A: 100

Q: Request: O=C(Nc1n[nH]c2nc(-c3ccc(O)cc3)c(Br)cc12)C1CC1 [SB-725317]
A: 100

Q: Also check CN(C)CCNC(=O)Nc1ccc(N(C)c2ccnc(Nc3ccc(CS(C)(=O)=O)cc3)n2)cc1.Cl [GW830900A]
A: 75

Q: Consider next the compound NS(=O)(=O)c1ccc(Nc2ncc(-c3ccccc3)o2)cc1 [GW572399X] in the same way.
A: 88

Q: Repeat for the following compound: CN1CCN(C(=O)c2ccc(NC(=O)Nc3ccc(N(C)c4ccnc(Nc5ccc(CS(C)(=O)=O)cc5)n4)cc3)cc2)CC1.Cl [GW830263A]
A: 44

Q: COc1cccc(-n2ncc3c(N/N=C/c4ccncc4)ncnc32)c1 [GW784752X] , same question.
A: 54

Q: Try this compound too: CCc1ccc(Oc2nccc(-c3c(-c4ccc(F)cc4)ncn3C3CCNCC3)n2)cc1 [SB-242719]
A: 100

Q: Now this one: Cl.O=C(Nc1ccc(Oc2ccc3[nH]c(NC(=O)c4ccco4)nc3c2)cc1)Nc1cc(C(F)(F)F)ccc1F [GW683134A]
A: 3.2

Q: Then this compound: Cl.O=C(Nc1ccc(Oc2ccc3[nH]c(NC(=O)c4ccccc4)nc3c2)cc1)Nc1cc(C(F)(F)F)ccc1F [GW709042A]
A: 26
